Kindly state fold change (FC) for each of the entries shown.
System: DLD-1
Assay: Inhibition of 20S proteasome in human DLD1 cells transfected with 4Ub-Luc gene assessed as bioluminescence induction factor at 0.5 uM after 8 hrs by luciferase reporter gene assay relative to epoxomicin
Assay type: cell-based
Lab note: jot the number down without any unit.

Input line: fold change (FC) lookup needed for C=C(C(=O)[C@H](OS(=O)(=O)O)[C@@H](C)[C@H]1[C@@H](OC(C)=O)C[C@@]2(C)[C@@H]3CC[C@H]4[C@H](C)C(=O)C=C[C@@]45C[C@@]35CC[C@]12C)[C@@H](C)COS(=O)(=O)O , thanks.
Output line: 1

Input line: What do we get for COCC(C(=O)[C@H](O)[C@@H](C)[C@H]1[C@@H](OC(C)=O)C[C@@]2(C)[C@@H]3CC[C@H]4[C@H](C)C(=O)C=C[C@@]45C[C@@]35CC[C@]12C)[C@@H](C)CO (stereo partly drawn) ?
Output line: 0.9

Input line: Quick one: C=C(C(=O)[C@H](OC(C)=O)[C@@H](C)[C@H]1[C@@H](OC(C)=O)C[C@@]2(C)[C@@H]3CC[C@H]4[C@H](C)C(=O)C=C[C@@]45C[C@@]35CC[C@]12C)[C@@H](C)COC(=O)CN(C)C
Output line: 66
